biological target: CA I (Homo sapiens); test: Fluorescent thermal shift assay (TSA), CA I; format: binding; details: 37° C., pH 7.0, read-out: Dissociation constants Kd to CA I (converted)
Sequence (P00915 whole entry): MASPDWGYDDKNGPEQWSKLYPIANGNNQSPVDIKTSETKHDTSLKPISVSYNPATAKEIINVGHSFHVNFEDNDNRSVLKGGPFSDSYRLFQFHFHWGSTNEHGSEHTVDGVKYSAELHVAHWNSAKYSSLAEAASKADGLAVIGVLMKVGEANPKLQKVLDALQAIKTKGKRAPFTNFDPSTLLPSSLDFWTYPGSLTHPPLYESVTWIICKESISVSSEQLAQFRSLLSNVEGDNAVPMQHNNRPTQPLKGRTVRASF
quantity: Kd (nM)
Answer with a number only, understood to be in nM.

Consider the reported Kd for these compounds:
compound: CC(C)Nc1c(F)c(SCCc2ccccc2)c(F)c(F)c1S(N)(=O)=O
assay target: CA I (Homo sapiens)
display unit: nM
Kd: 3300
//
compound: NS(=O)(=O)c1c(F)c(F)c(S(=O)(=O)CCc2ccccc2)c(NC23CC4CC(CC(C4)C2)C3)c1F
assay target: CA I (Homo sapiens)
display unit: nM
Kd: 500
//
compound: NS(=O)(=O)c1c(F)c(F)c(S(=O)(=O)CCc2ccccc2)c(NCc2ccccc2)c1F
assay target: CA I (Homo sapiens)
display unit: nM
Kd: 56

Which measured Kd belongs to COc1cccc(OC)c1CNc1c(F)c(S(N)(=O)=O)c(F)c(F)c1S(=O)(=O)CCO [Compound 10d] , tested on CA I (Homo sapiens)?
200

Now the compound `COc1cccc(OC)c1CNc1c(F)c(S(N)(=O)=O)c(F)c(F)c1S(=O)(=O)CCc1ccccc1`
58.8

Now the compound `NS(=O)(=O)c1c(F)c(F)c(S(=O)(=O)CCc2ccccc2)c(N[C@@H](c2ccccc2)[C@H](O)c2ccccc2)c1F`
1700

Now the compound NS(=O)(=O)c1c(F)c(F)c(S(=O)(=O)CCO)c(NCc2ccccc2)c1F [Compound 10a]
200
